Measured values drawn from patent US8168646B2 for this set.

Measurement record for human lung carcinoma (A-549); quantity recorded: GI50.
Report as a plain number; the unit µM is understood.

// solved cases for GI50 follow
compound	GI50 (µM)
COc1cccc2c1C(=O)c1c(O)c3c(c(O)c1C2=O)C[C@@](O)(C(=O)CO)C[C@@H]3O[C@H]1C[C@H](N)[C@H](O)[C@H](C)O1 [Doxorubicin, doxorubicin, reference compound]	0.16
COC(=O)CC1c2ccccc2N=C(N(C)CCCCCN(C)C)N1c1ccc(-c2ccccc2)cc1 (stereo not shown)	1.77
CN(CCCCCN1CCCC1)C1=Nc2ccccc2C(CC(=O)NCc2ccccc2)N1c1ccc(-c2ccccc2)cc1 (stereo not shown)	0.87

Ask: Given CN(C)CCCCCN(C)C1=Nc2ccccc2C(CC(=O)NCc2ccccc2)N1c1ccc(-c2ccccc2)cc1 (stereo not shown) , respond with its GI50.
Result: 0.17
